Items are presented alongside their recorded cleaved RNA product abundance.
- Test system: Bacillus subtilis
- Experimental details: cleaved RNA product abundance (RNA/gDNA barcode ratio) relative to median wild-type variant (ratio to wild type); higher = more accumulation of the downstream cleavage product
- Condition summary: experiment (reporter, strain, medium): exp 4a: truncated aprE reporter, strain BJT201 with 2% xylose (RNase J1 expressed); cleavage site: cggR-gapA (positions -7 to +36 mutated)
Form field (numeric): enter value without unit.

Example sequences with recorded cleaved RNA product abundance:
>  <Sequence content>
ACAGACGAAGGAGCCGCAAAGAAGTAATTAAGGGATGAATAATCCCTCAATATATATATCTCTCACTTATTTAAA

>  <Readout kind>
cleaved RNA product abundance

>  <Numeric value>
0.278

$$$$
>  <Sequence content>
ACAGACGAAGGAGCCGCAAAGAAGTTTTTAAGGGATGTATAATCCCTCAATATAAATATCTCTCACTTATTTAAA

>  <Readout kind>
cleaved RNA product abundance

>  <Numeric value>
0.331

$$$$

Query: cleaved RNA product abundance; subject: ACAGACGAAGGAGCCGCAAAGAAGTTATTAACCGATGAATAATCCCTCAATATAAATATCTCTCACTTATTTAAA 0.0751

Query: cleaved RNA product abundance; subject: ACAGACGAAGGAGCCGCAAAGAAGTTATTAAGAGATGAATAATCCCTCAATATATATATCTCTCACTTATTTAAA 0.14

====

- Tested on: Bacillus subtilis
- Experimental details: cleaved RNA product abundance (RNA/gDNA barcode ratio) relative to median wild-type variant (ratio to wild type); higher = more accumulation of the downstream cleavage product
- Condition summary: experiment (reporter, strain, medium): exp 4a: truncated aprE reporter, strain BJT201 with 2% xylose (RNase J1 expressed); cleavage site: cggR-gapA (positions -7 to +36 mutated)
Readout kind: cleaved RNA product abundance
Form field (numeric): enter value without unit.

Example sequences with recorded cleaved RNA product abundance:
>  <Sequence content>
ACAGACGAAGGAGCCGCAAAGAAGTTATTAAGGGATGAATAATCCCTAAATATACATATCTCTCACTTATTTAAA

>  <Target>
Bacillus subtilis

>  <cleaved RNA product abundance>
0.465

$$$$
>  <Sequence content>
ACAGACGAAGGAGCCGCAAAGAAGTTCTTAATGGATGAATAATCCCTCAATATAAATATCTCTCACTTATTTAAA

>  <Target>
Bacillus subtilis

>  <cleaved RNA product abundance>
0.119

$$$$
>  <Sequence content>
ACAGACGAAGGAGCCGCAATGAAGTTATTAAGGGATGAATAATCCCTCTATATAAATATCTCTCACTTATTTAAA

>  <Target>
Bacillus subtilis

>  <cleaved RNA product abundance>
0.689

$$$$

Now let's try a different one.
Query: cleaved RNA product abundance; subject: ACAGACGAAGGAGCCGCAAAGAAGTTATTAGGGGATGAATAATACCTCAATATAAATATCTCTCACTTATTTAAA 0.211

====

- System: Bacillus subtilis
- Experimental details: cleaved RNA product abundance (RNA/gDNA barcode ratio) relative to median wild-type variant (ratio to wild type); higher = more accumulation of the downstream cleavage product
- Condition summary: experiment (reporter, strain, medium): exp 2b: truncated aprE reporter, strain BJT200; cleavage site: cggR-gapA (positions -7 to +36 mutated)
Readout kind: cleaved RNA product abundance
Form field (numeric): enter value without unit.

Example sequences with recorded cleaved RNA product abundance:
>  <Sequence content>
ACAGACGAAGGAGCCGCGAAGAAGTAATTAAGGGATGAATAATCCCTCAATATAAATATCTCTCACTTATTTAAA

>  <Numeric value>
0.178

$$$$
>  <Sequence content>
ACAGACGAAGGAGCCGCAAAGAAGTTATTAAGGGATTAATAAACCCTCAATATAAATATCTCTCACTTATTTAAA

>  <Numeric value>
0.559

$$$$
>  <Sequence content>
ACAGACGAAGGAGCCGCAAAAAAGTTATTAAGGGATGCATAATCCCTCAATATAAATATCTCTCACTTATTTAAA

>  <Numeric value>
0.986

$$$$
>  <Sequence content>
ACAGACGAAGGAGCCGCAAAGAAGTTATTAAGGGATGAATAATCCGTCAATATAAATATCTCTCACTTATTTAAA

>  <Numeric value>
0.167

$$$$
>  <Sequence content>
ACAGACGAAGGAGCCGCAAAGAAGTAATTAAAGGATGAATAATCCCTCAATATAAATATCTCTCACTTATTTAAA

>  <Numeric value>
0.101

$$$$

Query: cleaved RNA product abundance; subject: ACAGACGAAGGAGCCGCAAAGAAGTTATTAAGGGAAGAATAATCACTCAATATAAATATCTCTCACTTATTTAAA 0.109

Query: cleaved RNA product abundance; subject: ACAGACGAAGGAGCCGCAATGAAGTTATTAAGGGCTGAATAATCCCTCAATATAAATATCTCTCACTTATTTAAA 0.583
